Target: LNX1_1, Q8TBB1
Sequence (Q8TBB1 261-371): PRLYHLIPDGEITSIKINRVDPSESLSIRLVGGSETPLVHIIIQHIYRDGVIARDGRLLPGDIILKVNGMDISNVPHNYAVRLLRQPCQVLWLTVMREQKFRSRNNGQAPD
Experiment: holdup assay
Parameters: key: below the threshold = too weak to quantify, mostly under pKd 3.1 to 4
Settings: plain residues with an end cap or a label only (N-terminal biotin on a linker: ado-ado)
result type: pKd

binder="SQPLLVHDDV [KIT, P10721]" result_type=pKd recorded_measurement="below the threshold"
binder="RDYTQSSSSL [GRM5, P41594]" result_type=pKd recorded_measurement="below the threshold"
binder="ELKAEDEVQI [DCHS2, Q6V1P9]" result_type=pKd recorded_measurement="below the threshold"
binder="PGKKPEDSRV [SLCO2B1, O94956]" result_type=pKd recorded_measurement="below the threshold"
binder="PAALPESTHM [SLC9A3, P48764]" result_type=pKd recorded_measurement="below the threshold"

Consider the binder VKQYADVEGF [HNRNPK, P61978;P61978-2] and give its measured pKd.
below the threshold

Can you look up the measured pKd of TNSKQGETTV [FZD1, Q9UP38] for me?
below the threshold

These entries and their values trace back to paper PMC9482650.
